These entries and their values trace back to patent US11274115B2.

Below is a list of entries, each paired with its recorded pEC50 value.
Target: human TLR8 (Homo sapiens, UniProt Q9NR97)
Construct: host or cells: HEK293
Assay: hTLR8 agonist reporter assay in HEK293 cells (NFκB-SEAP)
Format: cell-based
Details: Table 3, FIG. 6, another occasion; * = only very low levels of NFKB activation were detected; read-out: hTLR8 ED50
For clarity, pEC50 is expressed as the negative log10 of concentration in mol/L.

Below are worked cases with known answers.
CCCCCCCC/C=C\CCCCCCCC(=O)OC[C@H](COP(=O)(O)OCCOc1ccc2c(c1)nc(N)c1nc(CCCC)n(CCO)c12)OC(=O)CCCCCCC/C=C\CCCCCCCC
6.23
CCCCc1nc2c(N)nc3ccccc3c2n1CCO [Comparative Example 1, reference compound]
6.14
CCCCc1nc2c(N)nc3cc(OCCO)ccc3c2n1CCO
5.96

q: Form field: reported pEC50 of `CCCCCCCC/C=C\CCCCCCCC(=O)OC[C@H](COP(=O)(O)OCCOCCOCCOc1ccc2c(c1)nc(N)c1nc(CCCC)n(CCO)c12)OC(=O)CCCCCCC/C=C\CCCCCCCC`
a: 5.24

q: Any idea what its pEC50 is? The compound is `CCCCc1nc2c(N)nc3cc(OCCCCO)ccc3c2n1CCO`
a: 5.66

q: Can you look up the measured pEC50 of `CCCCCCCC/C=C\CCCCCCCC(=O)OC[C@H](COP(=O)(O)OCCCCOc1ccc2c(c1)nc(N)c1nc(CCCC)n(CCO)c12)OC(=O)CCCCCCC/C=C\CCCCCCCC` for me?
a: 5.18

q: Given `CCCCc1nc2c(N)nc3cc(OCCOCCOCCO)ccc3c2n1CCO` , state its recorded pEC50.
a: 4.79

---

Molecular target: human TLR7 (Homo sapiens)
Construct: host or cells: HEK293
Experiment: hTLR7 agonist reporter assay in HEK293 cells (NFκB-SEAP)
Type: cell-based
Details: Table 2, FIG. 3, another occasion; * = only very low levels of NFKB activation were detected; read-out: hTLR7 ED50
measured_endpoint: pEC50
In simple prose, pEC50 is minus the logarithm base ten of a concentration in moles per litre.

Below are worked cases with known answers.
CCCCCCCC/C=C\CCCCCCCC(=O)OC[C@H](COP(=O)(O)OCCn1c(CCCC)nc2c(N)nc3ccccc3c21)OC(=O)CCCCCCC/C=C\CCCCCCCC [Comparative Example 2, reference compound]
4.26
CCCCCCCC/C=C\CCCCCCCC(=O)OC[C@@H](O)COP(=O)(O)OCCOc1ccc2c(c1)nc(N)c1nc(CCCC)n(CCO)c12
5.47
CCCCc1nc2c(N)nc3cc(OCCO)ccc3c2n1CCO
5.62
CCCCc1nc2c(N)nc3ccccc3c2n1CCO [Comparative Example 1, reference compound]
6.00

q: Name the reported pEC50 value associated with the molecule `CCCCCCCC/C=C\CCCCCCCC(=O)OC[C@H](COP(=O)(O)OCCOc1ccc2c(c1)nc(N)c1nc(CCCC)n(CCO)c12)OC(=O)CCCCCCC/C=C\CCCCCCCC`
a: 5.15

---

Biological target: human TLR8 (Homo sapiens, UniProt Q9NR97)
Construct: host or cells: HEK293
Sequence (Q9NR97 27-1041): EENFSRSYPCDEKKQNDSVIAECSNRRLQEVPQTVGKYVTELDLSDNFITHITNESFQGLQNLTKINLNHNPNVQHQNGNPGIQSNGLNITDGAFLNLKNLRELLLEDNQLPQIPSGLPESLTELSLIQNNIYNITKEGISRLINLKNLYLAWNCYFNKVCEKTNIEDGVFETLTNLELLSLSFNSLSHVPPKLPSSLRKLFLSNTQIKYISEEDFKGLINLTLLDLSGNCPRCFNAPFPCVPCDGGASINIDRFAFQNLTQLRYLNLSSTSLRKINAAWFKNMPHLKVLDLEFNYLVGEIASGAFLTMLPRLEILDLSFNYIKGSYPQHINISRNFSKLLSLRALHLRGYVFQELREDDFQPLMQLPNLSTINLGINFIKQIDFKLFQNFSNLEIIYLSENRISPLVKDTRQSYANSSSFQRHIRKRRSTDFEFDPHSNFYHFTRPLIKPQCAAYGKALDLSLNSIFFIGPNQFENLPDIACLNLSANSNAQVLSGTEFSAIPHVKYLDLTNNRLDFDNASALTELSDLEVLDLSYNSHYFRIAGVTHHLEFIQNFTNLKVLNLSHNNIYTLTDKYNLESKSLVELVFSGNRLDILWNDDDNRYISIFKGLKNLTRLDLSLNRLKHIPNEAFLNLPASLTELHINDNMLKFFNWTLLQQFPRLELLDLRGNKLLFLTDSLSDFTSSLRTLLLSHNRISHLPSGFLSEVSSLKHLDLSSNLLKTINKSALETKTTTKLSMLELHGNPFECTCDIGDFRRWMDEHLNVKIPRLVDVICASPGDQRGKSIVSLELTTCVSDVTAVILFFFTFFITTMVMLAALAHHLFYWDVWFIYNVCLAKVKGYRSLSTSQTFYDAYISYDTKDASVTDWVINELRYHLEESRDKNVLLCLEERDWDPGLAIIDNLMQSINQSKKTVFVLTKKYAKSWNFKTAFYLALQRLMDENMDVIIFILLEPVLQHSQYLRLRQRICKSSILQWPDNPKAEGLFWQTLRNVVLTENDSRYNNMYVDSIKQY
Assay: hTLR8 agonist reporter assay in HEK293 cells (NFκB-SEAP)
Format: cell-based
Details: Table 4, FIG. 8, another occasion; read-out: hTLR8 ED50
# key: entry, value: pEC50
Note on pEC50: it is the negative log10 of concentration, concentration in mol/L.

Before answering, review these 3 worked examples.
CCCCc1nc2c(N)nc3ccccc3c2n1CCO [Comparative Example 1, reference compound]
6.21
CCCCCCCC/C=C\CCCCCCCC(=O)OC[C@H](COP(=O)(O)OCCOc1ccc2c(c1)nc(N)c1nc(CCCC)n(CCO)c12)OC(=O)CCCCCCC/C=C\CCCCCCCC
6.15
CCCCCCCCCCCCCCCC(=O)OC[C@H](COP(=O)(O)OCCOc1ccc2c(c1)nc(N)c1nc(CCCC)n(CCO)c12)OC(=O)CCCCCCCCCCCCCCC
5.42

# ---- query compound ----
q: Please report the recorded pEC50 for `CCCCCCCCCCCCCCCC(=O)OC[C@H](COCCOCCOCCOP(=O)(O)OCCOc1ccc2c(c1)nc(N)c1nc(CCCC)n(CCO)c12)OC(=O)CCCCCCCCCCCCCCC` .
a: 6.09

---

Molecular target: human TLR7 (Homo sapiens, UniProt Q9NYK1)
Construct: host or cells: HEK293
Sequence (Q9NYK1 27-1049): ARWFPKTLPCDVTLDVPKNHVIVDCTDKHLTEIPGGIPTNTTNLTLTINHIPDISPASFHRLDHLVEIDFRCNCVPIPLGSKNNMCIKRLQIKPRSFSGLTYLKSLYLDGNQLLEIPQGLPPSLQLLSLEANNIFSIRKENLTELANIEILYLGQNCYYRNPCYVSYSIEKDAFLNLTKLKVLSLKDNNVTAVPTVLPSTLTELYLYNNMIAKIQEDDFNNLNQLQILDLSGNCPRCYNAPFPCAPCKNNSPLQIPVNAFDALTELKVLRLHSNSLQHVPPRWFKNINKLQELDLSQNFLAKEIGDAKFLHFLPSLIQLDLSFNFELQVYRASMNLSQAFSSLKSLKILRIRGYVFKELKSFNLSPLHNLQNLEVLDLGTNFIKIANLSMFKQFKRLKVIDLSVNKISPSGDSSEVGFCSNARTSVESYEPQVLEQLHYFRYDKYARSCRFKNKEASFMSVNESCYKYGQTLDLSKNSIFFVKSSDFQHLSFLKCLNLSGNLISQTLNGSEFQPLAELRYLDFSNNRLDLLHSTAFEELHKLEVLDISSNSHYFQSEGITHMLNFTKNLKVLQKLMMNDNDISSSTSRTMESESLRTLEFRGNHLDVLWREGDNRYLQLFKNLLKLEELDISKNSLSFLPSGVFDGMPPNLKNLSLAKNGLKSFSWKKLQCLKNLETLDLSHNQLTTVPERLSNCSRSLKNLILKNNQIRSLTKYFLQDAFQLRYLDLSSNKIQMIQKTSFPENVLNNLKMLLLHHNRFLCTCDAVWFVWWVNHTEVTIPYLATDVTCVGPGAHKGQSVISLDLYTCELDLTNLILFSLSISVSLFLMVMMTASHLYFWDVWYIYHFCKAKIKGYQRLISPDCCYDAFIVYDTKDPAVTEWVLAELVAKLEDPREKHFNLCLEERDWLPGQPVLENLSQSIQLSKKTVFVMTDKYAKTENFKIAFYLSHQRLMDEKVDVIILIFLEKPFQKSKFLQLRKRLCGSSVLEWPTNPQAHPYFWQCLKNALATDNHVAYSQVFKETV
Test: hTLR7 agonist reporter assay in HEK293 cells (NFκB-SEAP)
Assay type: cell-based
Conditions: Table 2; hTLR7 ED50 over hTLR8 ED50
The threshold is 2. Values of hTLR7/8 ratio beneath it are tagged fulfilled; values meeting or exceeding it are tagged not fulfilled.

Examples from the recorded data:
CCCCCCCC/C=C\CCCCCCCC(=O)OC[C@@H](O)COP(=O)(O)OCCOc1ccc2c(c1)nc(N)c1nc(CCCC)n(CCO)c12 [Example 3]
fulfilled
CCCCc1nc2c(N)nc3cc(OCCO)ccc3c2n1CCO [Comparative Example 3]
not fulfilled

q: Determine whether this molecule shows hTLR7/8 ratio lower than 2 (ties excluded): CCCCCCCC/C=C\CCCCCCCC(=O)OC[C@H](COP(=O)(O)OCCn1c(CCCC)nc2c(N)nc3ccccc3c21)OC(=O)CCCCCCC/C=C\CCCCCCCC [Comparative Example 2, reference compound]
a: fulfilled

q: Is the reported hTLR7/8 ratio for CCCCc1nc2c(N)nc3ccccc3c2n1CCO [Comparative Example 1, reference compound] strictly below 2?
a: not fulfilled

q: Hi there! Is hTLR7/8 ratio for CCCCCCCC/C=C\CCCCCCCC(=O)OC[C@H](COP(=O)(O)OCCOc1ccc2c(c1)nc(N)c1nc(CCCC)n(CCO)c12)OC(=O)CCCCCCC/C=C\CCCCCCCC [Example 1] below 2, do you know?
a: not fulfilled

---

Target: human TLR7 (Homo sapiens, UniProt Q9NYK1)
Construct: host or cells: HEK293
Assay: hTLR7 agonist reporter assay in HEK293 cells (NFκB-SEAP)
Assay type: cell-based
Conditions: Table 4, FIG. 7, another occasion; read-out: hTLR7 ED50
measured_endpoint: EC50 (µM)
The response must be a number in µM with no trailing unit.

Recorded results for 3 compounds are shown here.
CCCCc1nc2c(N)nc3ccccc3c2n1CCO [Comparative Example 1, reference compound]
1.5
CCCCCCCCCCCCCCCC(=O)OC[C@H](COCCOCCOCCOP(=O)(O)OCCOc1ccc2c(c1)nc(N)c1nc(CCCC)n(CCO)c12)OC(=O)CCCCCCCCCCCCCCC
6.1
CCCCCCCCCCCCCCCC(=O)OC[C@H](COP(=O)(O)OCCOc1ccc2c(c1)nc(N)c1nc(CCCC)n(CCO)c12)OC(=O)CCCCCCCCCCCCCCC
14.6

// next entry
q: Please report the recorded EC50 for `CCCCCCCC/C=C\CCCCCCCC(=O)OC[C@H](COP(=O)(O)OCCOc1ccc2c(c1)nc(N)c1nc(CCCC)n(CCO)c12)OC(=O)CCCCCCC/C=C\CCCCCCCC` .
a: 7
